Origin of the recorded values: ChEMBL document CHEMBL4513216

PROTOCOL: Toxicity liver stage against HepG2, at 10uM
Format: cell-based
Design: test concentration 10 uM, cell line HepG2-A16-CD81EGFP
TEST_SETTINGS: human, HepG2-A16-CD81EGFP cells; read-out: INHIBITION
Each entry below carries its recorded cytotoxicity at 10 µM.
MEASUREMENT_LABEL: cytotoxicity at 10 µM (%)

| COMPOUND | MEASUREMENT_LABEL | DATA_VALUE |
| --- | --- | --- |
| O=C(O)c1cc(N2C[C@H](NC(=O)C3CCOCC3)[C@@H](C3CC3)C2)ccn1 | cytotoxicity at 10 µM | -4.23 |
| Cn1cc(C(=O)N[C@H]2CN(S(C)(=O)=O)[C@@H]3CCCO[C@H]23)cn1 | cytotoxicity at 10 µM | -16 |
| COC(=O)CNC(=O)C12CCC(=O)N1c1cc(Cl)ccc1S2 (centres undefined) | cytotoxicity at 10 µM | -0.748 |
| Cc1nnc(C(C)N2CCc3[nH]c4ccc(Cl)cc4c3C2)o1 (centres undefined) | cytotoxicity at 10 µM | -9.77 |
| O=C(CN1CCN(CCO)CC1)NCc1ccc(Cl)s1 | cytotoxicity at 10 µM | 9.3 |
| c1ncc(CN2CC(Cc3nccc4cc[nH]c34)C2)cn1 | cytotoxicity at 10 µM | -1.06 |
| CC(O)CN1CCC(CNCc2ccccc2Br)CC1 (centres undefined) | cytotoxicity at 10 µM | -13.2 |
| CC(C)CN1CC(C(=O)NCCc2c[nH]cn2)CC1=O (centres undefined) | cytotoxicity at 10 µM | -3.62 |
| CSCCC(C)NC(=O)c1cccc(-c2n[nH]c(C)n2)c1 (centres undefined) | cytotoxicity at 10 µM | 1.31 |
| CN1CCCN(C(=O)c2cnsn2)c2cc(F)ccc21 | cytotoxicity at 10 µM | -4.03 |
| CNc1ccc(CC2CCCN(C(=O)c3cnc(C)nc3)C2)nn1 (centres undefined) | cytotoxicity at 10 µM | -1.2 |
| CC(C)C[C@H](N)C(=O)N1CCSc2ccccc2C1 | cytotoxicity at 10 µM | 0.318 |
| CC1(C)C[C@H](CCNC(=O)c2ccncc2)c2ccccc2O1 | cytotoxicity at 10 µM | -5.55 |
| Cc1csc(C(=O)N2CC[C@H](Oc3cccnc3C)[C@@H](O)CC2)c1 | cytotoxicity at 10 µM | -10.7 |
| CNC(=O)c1ccc(NC(=O)NC(C)CCc2cccn2C)c(C)c1 (centres undefined) | cytotoxicity at 10 µM | 3.75 |
| CN(C)CCCNCC1CCOC(C)(C)C1 (centres undefined) | cytotoxicity at 10 µM | -8.02 |
| Cc1noc(C)c1CNC(=O)c1ccc(NC2CC2)nc1 | cytotoxicity at 10 µM | -3.91 |
| O=C(NCCNS(=O)(=O)C1CCCCC1)c1ccccc1 | cytotoxicity at 10 µM | -3.82 |
| Cc1nnc(N2CCCC3(CN(c4ccccn4)CCO3)C2)o1 (centres undefined) | cytotoxicity at 10 µM | -98.8 |
| COc1cc(C(=O)N2CCCC(n3cncn3)C2)ccc1C (centres undefined) | cytotoxicity at 10 µM | -3.86 |
| CC1c2cccn2CCN1C(=O)CCc1nc(-c2ccccc2)no1 (centres undefined) | cytotoxicity at 10 µM | 0.45 |
| Cc1nn(C)c(N(C)C)c1CNC(C)COc1cccc(F)c1 (centres undefined) | cytotoxicity at 10 µM | -4.96 |
| CCCn1cnnc1CNC(=O)C1COc2ccc(OC)cc2C1 (centres undefined) | cytotoxicity at 10 µM | -2.06 |
| CCCc1ccc(S(=O)(=O)NC(=O)CCc2cscn2)cc1 | cytotoxicity at 10 µM | 1.12 |
